Reported IC50 values are given for each entry in this list.
- Tested on: TGF-β-stimulated SMAD3 phosphorylation in BEAS-2B cells
- experiment summary: Cellular ALK5 potency assay, inhibition of TGF-β stimulated pSMAD3 formation in BEAS-2B cells
- Assay type: cell-based
- conditions: Homo sapiens, pSMAD3, TGF-β 10 ng/mL, read-out: BEAS2B pIC50 (converted)

Guide cases for IC50, answers given:
Cc1cccc(-c2nccc(Nc3ccnc(Nc4ccc(C(=O)OCCC5CCNCC5)nc4)n3)n2)n1 [Compound 558] :: 25.1 to 158 nM
Cc1cccc(-c2nccc(Nc3ccnc(Nc4cncc(C(=O)OCC5CNC5)c4)n3)n2)n1 [Compound 548] :: 25.1 to 158 nM
Cc1cccc(-c2nccc(Nc3ccnc(Nc4ccc(N5CCCC(C(=O)O)C5)cc4)n3)n2)n1 (stereo not shown) [Compound 454] :: 200 to 1260 nM
Cc1cccc(-c2nccc(Nc3ccnc(Nc4csc(C(=O)O[C@H]5CC[C@](C)(N)CC5)c4)n3)n2)n1 [Compound 572] :: 25.1 to 158 nM
Cc1cccc(-c2nccc(Nc3ccnc(Nc4nc(C(=O)O[C@@H]5CCN(C)C5)cs4)n3)n2)n1 [Compound 291] :: 25.1 to 158 nM

[in] Consider the molecule shown here: Cc1cccc(-c2nccc(Nc3ccnc(Nc4ccc(CN5CCNC(C(=O)OCC(C)C)C5)cc4)n3)n2)n1 (stereo not shown) [Compound 523] What is its recorded IC50?
[out] ≤ 20 nM

[in] Consider the molecule shown here: Cc1cccc(-c2nccc(Nc3ccnc(Nc4cccc(C(=O)N5CCOCC5)c4)n3)n2)n1 [Compound 72] What is its recorded IC50?
[out] 25.1 to 158 nM

[in] Consider the molecule shown here: Cc1cccc(-c2nccc(Nc3ccnc(Nc4nc(C(=O)OCCN5CCNCC5)cs4)n3)n2)n1 [Compound 551] What is its recorded IC50?
[out] 200 to 1260 nM

[in] Consider the molecule shown here: Cc1cccc(-c2nccc(Nc3ccnc(Nc4ccc(Cl)c(NC(=O)C5CCNCC5)c4)n3)n2)n1 [Compound 135] What is its recorded IC50?
[out] ≤ 20 nM

[in] Consider the molecule shown here: Cc1cccc(-c2nccc(Nc3ccnc(Nc4ccc5[nH]ncc5c4)n3)n2)n1 [Compound 284] What is its recorded IC50?
[out] ≤ 20 nM

[in] Consider the molecule shown here: CC[C@H](C)OC(=O)CC1CNCCN1c1ccc(Nc2nccc(Nc3ccnc(-c4cccc(C)n4)n3)n2)cc1 (stereo partly shown) [Compound 449] What is its recorded IC50?
[out] 25.1 to 158 nM

[in] Consider the molecule shown here: Cc1cccc(-c2nccc(Nc3ccnc(Nc4ccc(N5CCCC(C(=O)O[C@@H]6CCNC6)C5)cc4)n3)n2)n1 (stereo partly shown) [Compound 479] What is its recorded IC50?
[out] 25.1 to 158 nM

[in] Consider the molecule shown here: Cc1cccc(-c2nccc(Nc3ccnc(Nc4cnn(CCC5CCNCC5)c4)n3)n2)n1 [Compound 390] What is its recorded IC50?
[out] 200 to 1260 nM

[in] Consider the molecule shown here: Cc1cccc(-c2nccc(Nc3ccnc(Nc4csc(C(=O)O[C@@H]5CCN(C)C5)c4)n3)n2)n1 [Compound 504] What is its recorded IC50?
[out] 25.1 to 158 nM

[in] Consider the molecule shown here: Cc1cccc(-c2nccc(Nc3ccnc(Nc4ccc(N5CCN(CC6CCC(=O)O6)CC5)cc4)n3)n2)n1 (stereo not shown) [Compound 235] What is its recorded IC50?
[out] ≤ 20 nM
